The measured values listed here are drawn from PubChem BioAssay (NCI).

- System: SK-OV-3 ovarian
- PROTOCOL_DESCRIPTION: NCI tumour cell line growth inhibition, 48 h
List of TGI values.

Look over these answered cases.
# COMPOUND, TGI
records = [
    ("O=C1C2CC=CCC2C(=O)N1n1c(Cc2ccc(Cl)cc2)n[nH]c1=O (configuration not stated)", "> 100 µM"),
    ("COc1ccc(C2C(Cl)C(=O)N2n2cnc3ccccc3c2=O)cc1 (configuration not stated)", "> 100 µM"),
    ("Cc1nn(-c2ccccc2)c2nc(N3CCOCC3)nnc12", "> 100 µM"),
    ("COC(=O)CCC1=CCC2(SC)C(=O)Nc3cccc1c32 (configuration not stated)", "> 100 µM"),
    ("Oc1cn(-c2ccc(Cl)cc2)nc1-c1nnc(-c2ccccc2)o1", "> 74 µM"),
]

Using the record for "O=C1/C(=C/c2ccc(Br)cc2)COc2ccc(O)c(O)c21" , report its TGI.
11.6 µM

Value lookup for TGI; key = CC(C)CC1C(=O)NCCC(NC(=O)C(Cc2ccc(OC(C)(C)C)cc2)NC(=O)OC(C)(C)C)C(=O)NC(Cc2ccccc2)C(=O)NC(Cc2ccccc2)NC1=O (configuration not stated)
45.9 µM

Which TGI is reported for this compound? "COc1ccc(/C=C(/C(=O)N2CCN(c3ccccc3)CC2)c2cc(OC)c(OC)c(OC)c2)cc1O"
> 100 µM

// returns reported TGI for input CCCCCCCCCCCCOC1C(C(COC2OC(C3COC(C)(C)O3)C3OC(C)(C)OC23)NC(=O)Nc2ccc(C(=O)O)cc2)OC2OC(C)(C)OC21 (configuration not stated)
24 µM

Which TGI value belongs to "C=CCCCCC/C=C\[C@H](O)C#CC#C/C=C/CO" ?
> 100 µM

Report TGI for CC1=NNC(=O)C2CCC(=O)N12 (configuration not stated) please.
> 100 µM

// TGI lookup, key: NNC(=S)N/N=C(\CC1OC(=O)c2ccccc21)c1ccccc1O (configuration not stated)
> 100 µM

====

Entries and their TGI values follow.
- Tested on: KM12 colon
- PROTOCOL_DESCRIPTION: NCI tumour cell line growth inhibition, 48 h

Please review the following examples before continuing.
# MOLECULE, TGT, REPORTED_PROPERTY, MEASUREMENT
rows = [
    ("O=C(O)c1ccc(Nc2c3ccccc3nc3ccccc23)cc1", "KM12 colon", "TGI", "> 100 µM"),
    ("O=S1(=O)C[C@H](O)[C@H](O)CS1", "KM12 colon", "TGI", "> 100 µM"),
    ("C/C(=N\\NC(=S)N1CCCCC1)c1nc2ncccc2[nH]1", "KM12 colon", "TGI", "> 100 µM"),
    ("CC(C)c1ccccc1NC(=O)CCc1n[nH]c(=S)o1", "KM12 colon", "TGI", "> 100 µM"),
    ("N#CC(N)(C(=O)CCC(=O)Nc1cccc(Cl)c1)c1ccc(Cl)cc1 (stereo not drawn)", "KM12 colon", "TGI", "> 100 µM"),
    ("Cc1cc(C)n(C(=C(C(Cl)=C(Cl)Cl)[N+](=O)[O-])n2nc(C)cc2C)n1", "KM12 colon", "TGI", "13.9 µM"),
    ("Cc1cc(I)cc(CN(C)CCCN2CCCCCCC2)c1O", "KM12 colon", "TGI", "31 µM"),
    ("CCCCC1=NNC(=O)C1", "KM12 colon", "TGI", "> 100 µM"),
]

KM12 colon / TGI / "O=c1c2sc(=S)n(-c3ccc(F)cc3)c2ncn1Cc1ccc(F)cc1F" : value?
> 100 µM

Request body: readout TGI, system KM12 colon, query CNC(C#N)c1ccc(OC)cc1 (stereo not drawn) . Return the value.
> 100 µM

Form field - read-out: TGI; system: KM12 colon; submitted item: "O=C1NC(=O)C(c2c[nH]c3ccccc23)=C1c1cnc[nH]1"
> 100 µM

Query for KM12 colon: what TGI does the record show for "O=C(Cc1ccc(/C=C/C(=O)c2ncc[nH]2)cc1)Nc1cc(F)c(F)c(F)c1" ?
6.85 µM
